# Lookup of reported EC50 (nM), Ca2+ flux (FLIPR) in HEK293 cells transfected with SP9155 receptor keyed by entry
Target: T1, Human SP9155 receptor (human, UniProt Q96P65 1-431)
T1 sequence: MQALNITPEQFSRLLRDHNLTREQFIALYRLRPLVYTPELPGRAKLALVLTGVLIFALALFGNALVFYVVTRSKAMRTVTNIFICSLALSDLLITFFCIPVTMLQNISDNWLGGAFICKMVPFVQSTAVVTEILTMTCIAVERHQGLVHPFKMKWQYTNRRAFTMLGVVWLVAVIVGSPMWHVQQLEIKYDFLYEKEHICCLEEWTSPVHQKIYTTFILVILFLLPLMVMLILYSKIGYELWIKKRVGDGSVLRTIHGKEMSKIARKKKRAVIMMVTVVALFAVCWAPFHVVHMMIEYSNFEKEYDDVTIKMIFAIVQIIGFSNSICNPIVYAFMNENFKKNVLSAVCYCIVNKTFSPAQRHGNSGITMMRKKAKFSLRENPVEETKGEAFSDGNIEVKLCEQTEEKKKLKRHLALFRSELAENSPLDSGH
Experiment: cell-based or functional assay
Where no end group is shown, it is not given here.
reported property: EC50 (nM), Ca2+ flux (FLIPR) in HEK293 cells transfected with SP9155 receptor

- binder: "EHAGCRFRF-NH2 [Human P51]"
  recorded number: 1560
- binder: "GGFSFRF-NH2 [Human P52]"
  recorded number: 245
- binder: "KGGFSFRF-NH2 [Human P513]"
  recorded number: 258
- binder: "KKGGFSFRF-NH2 [Human P517]"
  recorded number: 235
